Tested on: SN12C renal
Assay: NCI-60 one-dose screen, 48 h (100 = growth as untreated, 0 = no growth, -100 = all killed)
Settings: 10 µM unless noted
Compounds without any hit were thinned out: in the full panel of roughly 83,000, 20% have a hit.
The entries below are paired with their reported growth.
State just the number; it will be interpreted in %.

The measured growth associated with `CCOC(=O)c1cc(-c2ccc([N+](=O)[O-])cc2)n(-c2ccc(C(=O)O)c(O)c2)c1C` reads 72.7

The measured growth associated with `CCN(CC)CCOc1ccc(C(=C(C)c2ccc(Cl)cc2)c2ccc(OCCN(CC)CC)cc2)cc1` reads -83.7

Origin of values: PubChem BioAssay (NCI)
